Target: Substance-P receptor (Homo sapiens)
Sequence (P25103 whole entry): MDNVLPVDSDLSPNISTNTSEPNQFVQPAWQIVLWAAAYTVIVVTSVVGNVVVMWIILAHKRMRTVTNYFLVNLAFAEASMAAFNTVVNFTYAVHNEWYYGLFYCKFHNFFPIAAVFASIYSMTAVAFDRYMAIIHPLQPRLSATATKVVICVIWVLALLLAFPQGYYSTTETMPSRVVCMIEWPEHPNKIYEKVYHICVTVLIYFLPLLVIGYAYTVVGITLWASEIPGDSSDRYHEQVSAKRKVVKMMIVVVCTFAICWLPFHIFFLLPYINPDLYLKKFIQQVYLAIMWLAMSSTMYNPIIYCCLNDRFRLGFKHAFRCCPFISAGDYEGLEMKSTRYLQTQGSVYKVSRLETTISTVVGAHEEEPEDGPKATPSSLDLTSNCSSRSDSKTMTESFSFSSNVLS
Experiment: Binding affinity in membrane preparations containing recombinant human Tachykinin receptor 1 in CHO cells by using [3H]-Sar SP as the radioligand.
# Ki per entry
Measured quantity: Ki

[
  {
    "Compound": "Cc1cc(C)cc(C(=O)N2CCN(C(=O)CNC3CCN(Cc4ncc[nH]4)CC3)[C@H](c3ccc(Cl)c(Cl)c3)C2)c1",
    "Measured quantity": "Ki",
    "Result": "92 nM"
  },
  {
    "Compound": "Cc1cc(C)cc(C(=O)N2CCN(C(=O)CNC3CCNCC3)[C@H](c3ccc(Cl)c(Cl)c3)C2)c1",
    "Measured quantity": "Ki",
    "Result": "215 nM"
  },
  {
    "Compound": "O=C(CN1CCC(Cc2ccccc2)CC1)N1CCN(Cc2cc(C(F)(F)F)cc(C(F)(F)F)c2)CC1c1ccc(Cl)c(Cl)c1 (centres undefined)",
    "Measured quantity": "Ki",
    "Result": "110 nM"
  },
  {
    "Compound": "O=C(CN1CCC(Cc2ccccc2)CC1)N1CCN(Cc2cc(C(F)(F)F)cc(C(F)(F)F)c2)CC1c1ccccc1 (centres undefined)",
    "Measured quantity": "Ki",
    "Result": "37 nM"
  }
]

* * *

Biological target: Substance-K receptor (Homo sapiens, UniProt P21452)
Sequence (P21452 whole entry): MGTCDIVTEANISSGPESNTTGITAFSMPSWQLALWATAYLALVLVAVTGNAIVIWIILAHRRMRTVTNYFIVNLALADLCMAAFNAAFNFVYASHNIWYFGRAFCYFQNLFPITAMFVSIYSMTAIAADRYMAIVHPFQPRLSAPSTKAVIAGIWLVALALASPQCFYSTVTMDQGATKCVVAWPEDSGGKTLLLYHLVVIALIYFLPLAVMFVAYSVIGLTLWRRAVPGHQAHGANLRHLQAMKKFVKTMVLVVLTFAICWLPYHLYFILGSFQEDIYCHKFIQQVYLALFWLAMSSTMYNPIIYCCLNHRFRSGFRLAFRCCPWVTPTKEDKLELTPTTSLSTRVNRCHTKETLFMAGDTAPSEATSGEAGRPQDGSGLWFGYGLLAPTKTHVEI
Assay: Binding affinity in membrane preparations containing recombinant human Tachykinin receptor 2 in CHO cells by using [3H]NKA as the radioligand.
pKi: −log10 of the molar value.
# pKi per entry

[
  {
    "Compound": "CC(=O)Nc1ccc(CN2CCC(NCC(=O)N3CCN(C(=O)c4cc(C)cc(C)c4)C[C@H]3c3ccc(Cl)c(Cl)c3)CC2)cc1",
    "Relation qualifier": "=",
    "pKi": 8.89
  },
  {
    "Compound": "Cc1cc(C)cc(C(=O)N2CCN(C(=O)CNC3CCN(C(=O)[C@H](N)Cc4ccc(O)cc4)CC3)[C@H](c3ccc(Cl)c(Cl)c3)C2)c1",
    "Relation qualifier": "=",
    "pKi": 8.15
  },
  {
    "Compound": "CC(=O)NC1(c2ccccc2)CCN(CC(=O)N2CCN(Cc3cc(C(F)(F)F)cc(C(F)(F)F)c3)CC2c2ccccc2)CC1 (centres undefined)",
    "Relation qualifier": "<",
    "pKi": 6.00
  },
  {
    "Compound": "Cc1cc(C)cc(C(=O)N2CCN(C(=O)CNC3CCN(C(=O)[C@@H](N)c4ccccc4)CC3)[C@H](c3ccc(Cl)c(Cl)c3)C2)c1",
    "Relation qualifier": "=",
    "pKi": 8.96
  }
]

Attribution: ChEMBL document CHEMBL1134946
